Assay: Antiproliferative activity against human NCI-H460/MX20 cells after 48 hrs by MTT assay
Format: functional, cell-based
Settings: NCI-H460/MX20, 48 h
Measured IC50, listed per entry.
OUTCOME_MEASURE: IC50 (µM)

LINE_NOTATION	OUTPUT_UNIT	OBSERVED_VALUE
C=C1C(=O)[C@]23[C@H](OC(=O)/C=C/c4ccccc4OC)[C@H]1CC[C@H]2[C@]12C=CCC(C)(C)[C@H]1[C@H](O)[C@]3(O)OC2	µM	5.53
C=C1C(=O)[C@]23[C@H](OC(=O)c4cccc(C)c4)[C@H]1CC[C@H]2[C@]12C=CCC(C)(C)[C@H]1[C@H](O)[C@]3(O)OC2	µM	14.2
C=C1C(=O)[C@]23[C@H](OC(=O)/C=C/c4ccccc4)[C@H]1CC[C@H]2[C@]12C=CCC(C)(C)[C@H]1[C@H](O)[C@]3(O)OC2	µM	13.6
C=C1C(=O)[C@]23[C@H](O)[C@H]1CC[C@H]2[C@@]12CO[C@@]3(O)[C@@H](O)[C@@H]1C(C)(C)C[C@H]1O[C@H]12	µM	11.2
C=C1C(=O)[C@]23[C@H](O)[C@H]1CC[C@H]2[C@@]12CO[C@]3(O)[C@@H](O)[C@@H]1C(C)(C)CC[C@@H]2O	µM	25.9
C=C1C(=O)[C@]23[C@H](O)[C@H]1CC[C@H]2[C@]12C=CCC(C)(C)[C@H]1[C@H](O)[C@]3(O)OC2	µM	11.1
